tested-on: HER4, full length, on transfected HEK293 cells (human, UniProt Q15303 26-1308)
Sequence (Q15303 26-1308): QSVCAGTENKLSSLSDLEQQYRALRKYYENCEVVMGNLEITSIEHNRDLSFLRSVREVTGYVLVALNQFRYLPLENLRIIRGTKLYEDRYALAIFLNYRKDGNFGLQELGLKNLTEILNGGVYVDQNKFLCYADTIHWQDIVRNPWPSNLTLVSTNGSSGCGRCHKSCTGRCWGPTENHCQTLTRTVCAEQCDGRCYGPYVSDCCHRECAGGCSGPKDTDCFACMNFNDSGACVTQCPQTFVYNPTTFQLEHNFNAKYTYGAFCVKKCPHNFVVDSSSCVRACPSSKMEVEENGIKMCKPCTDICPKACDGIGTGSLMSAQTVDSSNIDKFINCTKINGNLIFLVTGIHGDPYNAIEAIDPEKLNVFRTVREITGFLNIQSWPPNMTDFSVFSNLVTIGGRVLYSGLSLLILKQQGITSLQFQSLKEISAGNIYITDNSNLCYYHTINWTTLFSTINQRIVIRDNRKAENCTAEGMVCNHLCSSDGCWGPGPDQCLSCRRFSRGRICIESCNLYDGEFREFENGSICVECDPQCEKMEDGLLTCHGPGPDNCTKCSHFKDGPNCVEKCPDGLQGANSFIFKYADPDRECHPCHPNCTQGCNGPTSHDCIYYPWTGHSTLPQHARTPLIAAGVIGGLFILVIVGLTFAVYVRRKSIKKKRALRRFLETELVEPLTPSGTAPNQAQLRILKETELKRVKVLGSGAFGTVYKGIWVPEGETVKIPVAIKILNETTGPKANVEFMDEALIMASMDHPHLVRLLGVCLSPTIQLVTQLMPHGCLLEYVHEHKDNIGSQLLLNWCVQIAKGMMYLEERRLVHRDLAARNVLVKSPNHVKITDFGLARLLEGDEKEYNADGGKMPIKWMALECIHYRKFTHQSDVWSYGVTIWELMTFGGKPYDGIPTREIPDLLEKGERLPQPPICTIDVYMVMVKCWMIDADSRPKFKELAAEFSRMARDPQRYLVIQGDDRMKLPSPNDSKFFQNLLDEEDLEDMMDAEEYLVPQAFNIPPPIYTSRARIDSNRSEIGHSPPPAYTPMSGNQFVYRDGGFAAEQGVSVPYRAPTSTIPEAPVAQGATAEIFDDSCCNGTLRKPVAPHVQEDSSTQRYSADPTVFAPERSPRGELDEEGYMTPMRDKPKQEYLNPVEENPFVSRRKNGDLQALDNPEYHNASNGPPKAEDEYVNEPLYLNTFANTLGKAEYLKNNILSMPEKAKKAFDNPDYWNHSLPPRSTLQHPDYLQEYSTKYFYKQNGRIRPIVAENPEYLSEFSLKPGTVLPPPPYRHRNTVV
test: IHC on HEK293 cells transiently transfected with full length HER4; NC = untransfected cells
property: binding result

anti-HER3 antibody M-46-01 (antibody, V domains shown, mouse hybridoma clone) VH: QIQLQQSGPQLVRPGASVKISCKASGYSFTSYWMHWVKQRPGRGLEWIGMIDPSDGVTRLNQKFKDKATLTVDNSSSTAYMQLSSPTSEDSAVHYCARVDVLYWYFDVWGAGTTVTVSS VL: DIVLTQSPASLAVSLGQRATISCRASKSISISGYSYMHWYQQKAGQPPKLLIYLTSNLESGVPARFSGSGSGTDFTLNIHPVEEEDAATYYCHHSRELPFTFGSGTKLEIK | no binding
anti-HER3 antibody M-08-11 (antibody, V domains shown, mouse monoclonal antibody from hybridoma, tested as hybridoma supernatant or as antibody; also called M-011) VH: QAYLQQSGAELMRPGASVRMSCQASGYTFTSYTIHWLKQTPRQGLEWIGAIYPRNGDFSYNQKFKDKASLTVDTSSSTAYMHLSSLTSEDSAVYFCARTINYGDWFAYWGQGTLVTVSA VL: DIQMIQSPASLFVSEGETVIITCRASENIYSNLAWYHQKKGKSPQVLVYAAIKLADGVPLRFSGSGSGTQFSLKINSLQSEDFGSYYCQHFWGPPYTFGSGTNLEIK | no binding
anti-HER3 antibody M-43-01 (antibody, V domains shown, mouse hybridoma clone) VH: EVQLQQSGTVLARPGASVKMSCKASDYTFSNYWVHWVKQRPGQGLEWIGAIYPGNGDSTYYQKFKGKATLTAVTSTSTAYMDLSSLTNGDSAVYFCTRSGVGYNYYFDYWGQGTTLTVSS VL: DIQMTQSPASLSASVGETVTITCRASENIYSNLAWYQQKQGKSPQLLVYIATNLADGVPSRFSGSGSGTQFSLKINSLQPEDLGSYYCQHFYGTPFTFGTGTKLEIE | no binding

// data source = patent US20180094062A1
